Experiment: n-octanol/water partition coefficient (shake-flask, ICP-MS)

{"Molecule": "Cc1cccc[c]1[Ru+]([Cl])([PH](c1ccccc1)(c1ccccc1)c1ccccc1)[PH](c1ccccc1)(c1ccccc1)c1ccccc1.[F][Sb-]([F])([F])([F])([F])[F]", "Rel": "=", "LogPow": 2.01}
{"Molecule": "Cc1cccc[c]1[Ru+]([Cl])([PH](c1ccccc1)(c1ccccc1)c1ccccc1)[PH](c1ccccc1)(c1ccccc1)c1ccccc1.c1ccc([B-](c2ccccc2)(c2ccccc2)c2ccccc2)cc1", "Rel": ">", "LogPow": 3.5}
{"Molecule": "Cc1cccc[c]1[Ru+]([Cl])([PH](c1ccccc1)(c1ccccc1)c1ccccc1)[PH](c1ccccc1)(c1ccccc1)c1ccccc1.O=[N+]([O-])[O-]", "Rel": "=", "LogPow": 1.57}
{"Molecule": "Cc1cccc[c]1[Ru+]([Cl])([PH](c1ccccc1)(c1ccccc1)c1ccccc1)[PH](c1ccccc1)(c1ccccc1)c1ccccc1.F[P-](F)(F)(F)(F)F", "Rel": "=", "LogPow": 1.91}
{"Molecule": "Cc1cccc[c]1[Ru+]([Cl])([PH](c1ccccc1)(c1ccccc1)c1ccccc1)[PH](c1ccccc1)(c1ccccc1)c1ccccc1.F[B-](F)(F)F", "Rel": "=", "LogPow": 1.60}
{"Molecule": "Cc1ccccc1.[Cl-].[Cl][Ru+]([PH](c1ccccc1)(c1ccccc1)c1ccccc1)[PH](c1ccccc1)(c1ccccc1)c1ccccc1 [Compound 11Cl, [Ru(η^6-toluene)(PPh3)2Cl]Cl]", "Rel": "=", "LogPow": 1.48}
{"Molecule": "Cc1cccc[c]1[Ru+]([Cl])([PH](c1ccccc1)(c1ccccc1)c1ccccc1)[PH](c1ccccc1)(c1ccccc1)c1ccccc1.O=S(=O)([O-])C(F)(F)F", "Rel": "=", "LogPow": 1.75}
